tested.on: CypA (Homo sapiens, UniProt P62937)
Sequence (P62937 whole entry): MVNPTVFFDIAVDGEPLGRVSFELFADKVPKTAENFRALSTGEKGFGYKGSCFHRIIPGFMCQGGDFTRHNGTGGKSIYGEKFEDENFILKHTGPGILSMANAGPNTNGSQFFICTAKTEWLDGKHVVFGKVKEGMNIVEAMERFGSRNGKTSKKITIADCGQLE
assay.metric: pIC50
Please keep in mind that pIC50 is minus log10 of the molar concentration; only the number is needed.

Please look at this molecule and report its pIC50: CC(=O)CCC1C(=O)NC(C(C)C)C(=O)NC(Cc2cc(O)cc(F)c2)C(=O)N2CCCC(N2)C(=O)OC(C(C)=CC=CC(=O)OC(C)(C)C)CC=CC=CC(O)C(C)C1O (stereo not shown)
9.31

* * *

System: Dendritic cells
test.protocol: Cytotoxicity, CellTiter Glo
Type: cell-based
applied.conditions: Homo sapiens, Dendritic cell, 168 h, 7 days of treatment, read-out: IC50 (50% reduction in cell viability)
assay.metric: IC50 (µM)
Reply numerically in µM, unit not repeated.

Please look at this compound and report its IC50: CN[C@@H]1C[C@H]2O[C@@](C)([C@@H]1OC)n1c3ccccc3c3c4c(c5c6ccccc6n2c5c31)C(=O)NC4 [Staurosporine, reference compound]
0.009

Please look at this compound and report its IC50: CC(=O)CCC1C(=O)NC(C(C)C)C(=O)NC(Cc2cc(O)cc(F)c2)C(=O)N2CCCC(N2)C(=O)OC(C(C)=CC=CC(=O)OC(C)(C)C)CC=CC=CC(O)C(C)C1O (centres unmarked)
24.2

* * *

test.protocol: Pharmacokinetics IV and PO
Format: in vivo
applied.conditions: male, CD1, mouse, blood; mice; 0.5 mg/kg IV; read-out: time of peak concentration in blood (converted)
assay.metric: Tmax

Please look at this molecule and report its Tmax: CC(=O)CCC1C(=O)NC(C(C)C)C(=O)NC(Cc2cc(O)cc(F)c2)C(=O)N2CCCC(N2)C(=O)OC(C(C)=CC=CC(=O)OC(C)(C)C)CC=CC=CC(O)C(C)C1O (stereo not shown)
~5 min

* * *

System: LIXC-012
test.protocol: Cell proliferation assay: Acumen
Type: cell-based
applied.conditions: Homo sapiens, 168 h, 7 days, read-out: Abs IC50 growth inhibition
assay.metric: IC50 (nM)
Reply numerically in nM, unit not repeated.

* CC(=O)CCC1C(=O)NC(C(C)C)C(=O)NC(Cc2cc(O)cc(F)c2)C(=O)N2CCCC(N2)C(=O)OC(C(C)=CC=CC(=O)OC(C)(C)C)CC=CC=CC(O)C(C)C1O (centres unmarked) | 94

Lab note: next compound to report on.
Name the recorded IC50 of CNC(=O)c1cc(Oc2ccc(NC(=O)Nc3ccc(Cl)c(C(F)(F)F)c3)cc2)ccn1 [Sorafenib, reference compound] , assay system LIXC-012.
1250

* * *

tested.on: CypB (Homo sapiens, UniProt P23284)
Sequence (P23284 34-216): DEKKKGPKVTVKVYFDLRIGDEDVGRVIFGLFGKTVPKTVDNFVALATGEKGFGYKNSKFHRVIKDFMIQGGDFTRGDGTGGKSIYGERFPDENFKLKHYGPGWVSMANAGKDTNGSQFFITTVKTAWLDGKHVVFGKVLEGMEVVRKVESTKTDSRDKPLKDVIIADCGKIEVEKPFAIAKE
test.protocol: PPIase activity assay (chymotrypsin-coupled)
Format: biochemical
applied.conditions: free-cell assay; Cyp equilibrated 1 h at 5 °C with inhibitor; read-out: absolute IC50, PPIase activity CypB
assay.metric: pIC50
Please keep in mind that pIC50 is minus log10 of the molar concentration; only the number is needed.

Name the recorded pIC50 of CC(=O)CCC1C(=O)NC(C(C)C)C(=O)NC(Cc2cc(O)cc(F)c2)C(=O)N2CCCC(N2)C(=O)OC(C(C)=CC=CC(=O)OC(C)(C)C)CC=CC=CC(O)C(C)C1O (stereo not shown) , assay system CypB (Homo sapiens, UniProt P23284).
9.08

* * *

System: Bone marrow progenitors
test.protocol: Cytotoxicity, colony formation
Assay type: cell-based, human
applied.conditions: Homo sapiens, 336 h, 14 days of treatment, colonies counted
pIC50: −log10 of the molar value.
assay.metric: pIC50

Please look at this molecule and report its pIC50: CC(=O)CCC1C(=O)NC(C(C)C)C(=O)NC(Cc2cc(O)cc(F)c2)C(=O)N2CCCC(N2)C(=O)OC(C(C)=CC=CC(=O)OC(C)(C)C)CC=CC=CC(O)C(C)C1O (stereo not shown) [NV651]
< 4.52
